Data origin, for the record: patent US20190315806A1

Reported values of MIC K. pneumoniae ATCC BAA-2146 (NDM-1) for individual entries
Test system: Klebsiella pneumoniae ATCC BAA-2146 (NDM-1)
Assay: Antibacterial activity, MIC by dish double dilution method
Assay type: cell-based
Details: ATCC BAA-2146
Where a SMILES comes first, the peptide text is derived from it. Bridges are numbered along the chain shown (N, C = ends). [ ]: non-standard residue; d: D form. The star is where a group is joined. Heptanoyl(6-Me) = CC(C)CCCCC(=O)*; X2 = CC[C@H](C)CCCCC(=O)*; Dab = NCC[C@H](N)C(=O)O; Nva = CCC[C@H](N)C(=O)O

Compound	MIC K. pneumoniae ATCC BAA-2146 (NDM-1) [µg/mL]
CCC[C@@H]1NC(=O)[C@@H](CC(C)C)NC(=O)[C@H](CCN)NC(=O)[C@@H](NC(=O)[C@H](CCN)NC(=O)[C@@H](NC(=O)[C@H](CCN)NC(=O)CCCC[C@@H](C)CC)[C@@H](C)O)CCNC(=O)[C@H]([C@@H](C)O)NC(=O)[C@H](CCN)NC(=O)[C@H](CCN)NC1=O [Compound 73] (X2-[Dab]T[Dab][Dab][Dab][dL][Nva][Dab][Dab]T; lactam 4-C)	1
CC[C@H](C)[C@@H]1NC(=O)[C@@H](CC(C)C)NC(=O)[C@H](CCN)NC(=O)[C@@H](NC(=O)[C@H](CCN)NC(=O)[C@@H](NC(=O)[C@H](CCN)NC(=O)CCCCC(C)C)[C@@H](C)O)CCNC(=O)[C@H]([C@@H](C)O)NC(=O)[C@H](CCN)NC(=O)[C@H](CCN)NC1=O [Compound 75] ({Heptanoyl(6-Me)}-[Dab]T[Dab][Dab][Dab][dL]I[Dab][Dab]T; lactam 4-C)	1
CCC[C@@H]1NC(=O)[C@@H](CC(C)C)NC(=O)[C@H](CCN)NC(=O)[C@@H](NC(=O)[C@H](CCN)NC(=O)[C@@H](NC(=O)[C@H](CCN)NC(=O)CCCCC(C)C)[C@@H](C)O)CCNC(=O)[C@H]([C@@H](C)O)NC(=O)[C@H](CCN)NC(=O)[C@H](CCN)NC1=O [Compound 77] ({Heptanoyl(6-Me)}-[Dab]T[Dab][Dab][Dab][dL][Nva][Dab][Dab]T; lactam 4-C)	0.5
